experimental_system: Fes (UniProt P07332)
Sequence (P07332 whole entry, looked up): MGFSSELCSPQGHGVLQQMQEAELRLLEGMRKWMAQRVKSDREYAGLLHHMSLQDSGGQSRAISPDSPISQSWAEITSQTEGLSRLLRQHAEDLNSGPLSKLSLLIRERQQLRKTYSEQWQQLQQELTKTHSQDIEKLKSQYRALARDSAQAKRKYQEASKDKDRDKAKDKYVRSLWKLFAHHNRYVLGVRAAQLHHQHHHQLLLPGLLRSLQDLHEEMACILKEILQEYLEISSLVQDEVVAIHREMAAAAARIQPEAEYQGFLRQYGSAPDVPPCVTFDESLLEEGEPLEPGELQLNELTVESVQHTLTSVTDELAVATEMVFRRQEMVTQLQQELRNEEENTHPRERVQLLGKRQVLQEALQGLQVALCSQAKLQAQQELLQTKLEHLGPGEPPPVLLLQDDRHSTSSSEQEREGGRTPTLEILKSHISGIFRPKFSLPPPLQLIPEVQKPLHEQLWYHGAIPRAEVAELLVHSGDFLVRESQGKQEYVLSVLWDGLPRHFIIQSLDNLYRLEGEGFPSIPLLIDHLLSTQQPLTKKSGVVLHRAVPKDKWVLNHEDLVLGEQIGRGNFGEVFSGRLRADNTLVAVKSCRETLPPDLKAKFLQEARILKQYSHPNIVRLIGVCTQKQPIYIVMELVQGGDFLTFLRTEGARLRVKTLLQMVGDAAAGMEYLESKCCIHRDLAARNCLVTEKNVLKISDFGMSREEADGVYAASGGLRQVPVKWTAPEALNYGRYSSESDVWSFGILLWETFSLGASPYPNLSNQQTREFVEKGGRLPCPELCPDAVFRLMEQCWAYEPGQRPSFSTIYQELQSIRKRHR
assay_method_text: phosphorylation enrichment, bacterial display (enrichment ratio); higher = better substrate or ligand; peptides without Tyr show the background;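 also: 11-residue human phosphosite peptides and single-mutation variants displayed on the E. coli surface, counted by deep sequencing, each peptide's frequency after selection divided by its frequency in the unselected input library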;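 also: frequency after pTyr selection over input frequency; kinase dosed for 20-30% of maximal phosphorylation in three min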
Measured phosphorylation enrichment, listed per entry.
Respond numerically, and do not add a unit to the figure.

Use these answered entries as a reference point.
> print(dat)
                   residue.sequence                readout.kind  reading
1  IVFTSYVLTIL [TAS2R16_Y239_F240V]  phosphorylation enrichment     1.73
2     DFPGIYSGYDD [POLR1C_Y33_N32I]  phosphorylation enrichment     1.05
3    RNFVHYVQGLK [VWF_Y1400_R1399H]  phosphorylation enrichment    0.833
4     ELSDGYWVVSN [TPP1_Y459_A454E]  phosphorylation enrichment     1.34
5        SSYDIYHLSRE [KIR3DL2_Y253]  phosphorylation enrichment    0.851
6         KILGRYFETGS [PAX2_Y72_YF]  phosphorylation enrichment    0.656

Record RVSSVYTRSTG [CCR5_Y339_A335V] . Reported phosphorylation enrichment: 1.22

// sample RHTRSYDYTEG [FGF7_Y56_M59T] , its phosphorylation enrichment was 0.918

Record DYGSGYPNDPK [RNASEH2A_Y210] . Reported phosphorylation enrichment: 1.01
